- ASSAYED SYSTEM: Epidermal growth factor receptor (Homo sapiens)
- EXPERIMENT SUMMARY: EGFR binders on small-molecule microarrays, primary screen, biochemical, small-molecule microarray, 635 nm fluorescence (AID 1104);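 further: score merges 667 nm emission intensity with spot signal to noise over triplicate slides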
- COND: EGFR binding, higher = more signal
# label = Met if composite z-score >= -0.4 else Not met

compound="CC(C)(C)N1CC=CC23O[C@@H]4C=CCOC(=O)[C@@H]4[C@H]2C(=O)N(CCCCCCO)[C@@H]3C1=O (stereo partly specified)" class_assignment="Not met"
compound=CCCNC(=O)[C@@H]1c2ccccc2C(=O)N(C(C)C)[C@H]1c1ccc(CO)cc1 class_assignment="Not met"
compound=CCCCCCc1nc(C2CC2)cc2c1[Si](C(C)C)(C(C)C)O[C@H]2c1ccccc1 class_assignment=Met
compound=COC(=O)[C@@]1(Cc2ccccc2)[C@H]2c3cc(C(=O)N(C)C)n(Cc4c(CO)[nH]cc(C)c4=O)c3C[C@H]2CN1C(=O)c1ccccc1 class_assignment=Met
compound="CCOc1cc(C(O)C2C=CC3C(=O)N(c4ccccc4)C(=O)C3N2Nc2ccc(C#N)cc2)ccc1O (stereo unspecified)" class_assignment=Met
compound=COc1cc2c(cc1OC)CN(C(=O)[C@@H]1[C@H]3C(=O)O[C@H](c4ccccc4)[C@H](c4ccccc4)N3[C@H](c3ccc(OCCO)cc3)[C@@]13C(=O)Nc1ccccc13)CC2 class_assignment=Met
compound=O=C1O[C@@H](c2ccccc2)[C@@H](c2ccccc2)N2[C@@H](c3ccccc3OCCO)[C@]3(C(=O)Nc4ccc(C#CCCO)cc43)[C@@H](C(=O)N3CCCCCCC3)[C@H]12 class_assignment=Met
compound=COc1ccc(CCNC(=O)[C@@H]2c3ccccc3C(=O)N(Cc3cc(C(F)(F)F)cc(C(F)(F)F)c3)[C@H]2c2ccc(CO)cc2)cc1 class_assignment=Met
compound="CCCCN1CC=CC23O[C@@H]4/C=C\\CCC(C)OC(=O)C4[C@H]2C(=O)N(C(CO)C(C)C)[C@@H]3C1=O (stereo partly specified)" class_assignment="Not met"
compound=Cc1ccc(S[C@]2(C(=O)NCC(F)(F)F)CC(=O)N(C3CCCCC3)[C@@H]2c2ccc(CO)cc2I)cc1 class_assignment=Met
compound=COc1ccc([Si](C)(C)[C@@H]2[C@@H](CC(=O)N3Cc4ccccc4C[C@H]3CO)O[C@]3(C(=O)N(C)c4ccccc43)[C@H]2C)cc1 class_assignment=Met
